Assay Target: GST-tagged KRAS-G12D (2-169) (Homo sapiens, UniProt P01116, G12D)
Construct: GST-tagged KRAS-G12D (2-169, Reaction Biology, MSC-11-539); purchased Reaction Biology MSC-11-539 (KRAS G12D); MSC-11-502 (SOS1cat)
Sequence (P01116 2-169 isoform P01116-2 G12D): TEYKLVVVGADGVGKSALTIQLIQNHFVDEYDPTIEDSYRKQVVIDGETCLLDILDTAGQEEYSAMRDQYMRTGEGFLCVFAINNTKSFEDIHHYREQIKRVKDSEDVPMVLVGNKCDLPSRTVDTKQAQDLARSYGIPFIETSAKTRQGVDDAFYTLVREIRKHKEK
Procedure Details: Nucleotide exchange assay (NEA), SOS-mediated, HTRF, KRAS G12D
Format: biochemical
Protocol Conditions: Table 4; IC50 extracted at 30 min; listed as 74.2
Recorded Endpoint: IC50

*Q* Give me measured IC50, please, for this compound: CN(C)CC1(COc2nc(N3CC4CCC(C3)N4)c(C#N)c(N3CC4(CCc5sc(N)c(C#N)c54)C3)n2)CC1(F)F (stereo not shown) [Compound 74B]
*A* 10 to 100 nM
